- Tested System: acetylcholine receptor
- Method Description: SPR, AchR immobilised on chip, peptide 10 uM
Recorded Binding affinity (RU) by entry
Output should be the measured figure followed by the unit it is expressed in.

Worked examples, 3 binders total:
| Binder | Reported Property | Value Reported |
| --- | --- | --- |
| RPMDR [5mer-837] | Binding affinity (RU) | 28 RU |
| RRRICR [6mer-1-212] | Binding affinity (RU) | 148 RU |
| KTTPK [5mer-843] | Binding affinity (RU) | 17 RU |

In: Give recorded Binding affinity (RU). RETHK [5mer-1104]
Out: 12 RU

In: Give recorded Binding affinity (RU). KPHGR [5mer-1146]
Out: 23 RU

In: Give recorded Binding affinity (RU). KRLVQK [6mer-1-227]
Out: 139 RU

In: Give recorded Binding affinity (RU). KTDPR [5mer-844]
Out: 32 RU

In: Give recorded Binding affinity (RU). RRWITR [6mer-1-226]
Out: 128 RU
